Every entry's value here was drawn from the NIST ThermoML archive (doi:10.1016/j.jct.2011.05.030).

stated-conditions: Crystal; DTA
readout: Normal melting temperature (°C)

The following compounds have reported results that may help.
1) c1ccc2c(c1)ccc1cc3c(ccc4ccccc43)cc12 [dibenz[a,h]anthracene] :: 269.50
2) c1ccc2cc3c(cc2c1)-c1cccc2cccc-3c12 [benzo[k]fluoranthene] :: 217.00
3) c1ccc2c(c1)-c1cccc3c1c-2cc1ccccc13 [benz[e]acephenanthrylene] :: 168.00

A = c1ccc2c(c1)-c1ccc3ccc4cccc5cc-2c1c3c45 [indeno[1,2,3-cd]pyrene]
B = c1cc2ccc3ccc4ccc5cccc6c(c1)c2c3c4c56 [benzo[ghi]perylene]
Name the one with the greater Normal melting temperature value, either A or B as given. Use the label to indicate which entry you chose.
B
(B: 272.50 °C, A: 162.00 °C)

###

procedure-summary: Molar enthalpy of transition or fusion
stated-conditions: Crystal; DSC
readout: Molar enthalpy of transition or fusion (kcal/mol)

The following compounds have reported results that may help.
1) c1ccc2c(c1)-c1cccc3c1c-2cc1ccccc13 [benz[e]acephenanthrylene] :: 4.37
2) c1ccc2cc3c(cc2c1)-c1cccc2cccc-3c12 [benzo[k]fluoranthene] :: 6.33
3) c1ccc2c(c1)-c1ccc3ccc4cccc5cc-2c1c3c45 [indeno[1,2,3-cd]pyrene] :: 5.47

a = c1cc2ccc3ccc4ccc5cccc6c(c1)c2c3c4c56 [benzo[ghi]perylene]
b = c1ccc2c(c1)ccc1cc3c(ccc4ccccc43)cc12 [dibenz[a,h]anthracene]
Please indicate which item has the smaller measured Molar enthalpy of transition or fusion: a versus b Use the label to indicate which entry you chose.
a
(a: 3.9 kcal/mol, b: 5.86 kcal/mol)
